# maps each entry to its Affinity ELISA CPE mutant ratio (1:3, pH 6.0/7.4)
Molecular target: T1, Axl protein (human, UniProt P30530 26-451)
T1 construct: extracellular domain; also called human Axl; hAxl
T1 sequence (looked up): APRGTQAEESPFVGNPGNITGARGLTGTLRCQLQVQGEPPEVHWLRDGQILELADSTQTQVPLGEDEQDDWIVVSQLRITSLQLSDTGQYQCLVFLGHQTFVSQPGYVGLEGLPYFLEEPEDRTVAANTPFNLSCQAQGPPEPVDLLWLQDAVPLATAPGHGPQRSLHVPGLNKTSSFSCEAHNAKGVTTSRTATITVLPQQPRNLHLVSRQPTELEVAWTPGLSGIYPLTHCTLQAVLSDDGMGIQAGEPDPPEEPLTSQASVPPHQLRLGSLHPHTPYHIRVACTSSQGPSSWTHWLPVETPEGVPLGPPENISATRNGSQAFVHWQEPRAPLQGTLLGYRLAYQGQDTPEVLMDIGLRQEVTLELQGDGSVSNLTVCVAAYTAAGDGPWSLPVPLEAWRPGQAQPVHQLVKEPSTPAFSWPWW
Assay: ELISA, 1:3 dilution, pH 6.0 over pH 7.4
// return numeric value only (unit: ratio, not printed)

>>> data_value("LC-F092C (antibody, V domains shown) VH: EVQLVQSGAEVKKPGATVKISCKVSGYSFTGHTMNWIRQPPGKGLEWIGLIKPSNGGTSYNQKFKGRVTISADKSISTAYLQWSSLKASDTAMYYCAHGHYESYFAMDYWGQGTLVTVSS VL: DIQMTQSPSSLSASVGDRVTITCKASQDVSSAVAWYQQKPGQAPRLLIYWASTRHTGVPSRFSGSGSGTEFTLTISSLQPDDFATYYCQEHCSTPLTFGQGTKVEIK")
3.86
>>> data_value("LC-T094C (antibody, V domains shown) VH: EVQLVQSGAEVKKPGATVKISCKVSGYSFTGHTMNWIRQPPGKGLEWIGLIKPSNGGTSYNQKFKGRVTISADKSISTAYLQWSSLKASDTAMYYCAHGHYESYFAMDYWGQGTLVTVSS VL: DIQMTQSPSSLSASVGDRVTITCKASQDVSSAVAWYQQKPGQAPRLLIYWASTRHTGVPSRFSGSGSGTEFTLTISSLQPDDFATYYCQEHFSCPLTFGQGTKVEIK")
1.42
>>> data_value("LC-P095S (antibody, V domains shown) VH: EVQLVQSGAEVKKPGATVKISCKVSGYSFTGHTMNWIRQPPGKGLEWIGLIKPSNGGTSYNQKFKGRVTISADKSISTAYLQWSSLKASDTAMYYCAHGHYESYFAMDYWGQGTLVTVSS VL: DIQMTQSPSSLSASVGDRVTITCKASQDVSSAVAWYQQKPGQAPRLLIYWASTRHTGVPSRFSGSGSGTEFTLTISSLQPDDFATYYCQEHFSTSLTFGQGTKVEIK")
2.84

The binder listed as LC-L096R (antibody, V domains shown) VH: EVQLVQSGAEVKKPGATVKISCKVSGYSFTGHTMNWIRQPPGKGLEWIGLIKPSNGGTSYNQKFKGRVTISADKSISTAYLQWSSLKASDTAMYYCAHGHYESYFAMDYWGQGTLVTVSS VL: DIQMTQSPSSLSASVGDRVTITCKASQDVSSAVAWYQQKPGQAPRLLIYWASTRHTGVPSRFSGSGSGTEFTLTISSLQPDDFATYYCQEHFSTPRTFGQGTKVEIK has a reported Affinity ELISA CPE mutant ratio (1:3, pH 6.0/7.4) of 2.88

The binder listed as LC-A034Q (antibody, V domains shown) VH: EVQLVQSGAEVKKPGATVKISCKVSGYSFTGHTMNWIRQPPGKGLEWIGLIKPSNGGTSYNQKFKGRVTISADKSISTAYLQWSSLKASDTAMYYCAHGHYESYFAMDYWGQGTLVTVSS VL: DIQMTQSPSSLSASVGDRVTITCKASQDVSSAVQWYQQKPGQAPRLLIYWASTRHTGVPSRFSGSGSGTEFTLTISSLQPDDFATYYCQEHFSTPLTFGQGTKVEIK has a reported Affinity ELISA CPE mutant ratio (1:3, pH 6.0/7.4) of 2

Numbers sourced from patent US20190177417A1.
